Please go through the items and note down their Activity at 133 nM (% Inhibition), 24-hour Pre-incubation at 37° C., N = 1.
- TARGET_SYSTEM: KDR (human, UniProt P35968 20-1356)
- Sequence (P35968 20-1356): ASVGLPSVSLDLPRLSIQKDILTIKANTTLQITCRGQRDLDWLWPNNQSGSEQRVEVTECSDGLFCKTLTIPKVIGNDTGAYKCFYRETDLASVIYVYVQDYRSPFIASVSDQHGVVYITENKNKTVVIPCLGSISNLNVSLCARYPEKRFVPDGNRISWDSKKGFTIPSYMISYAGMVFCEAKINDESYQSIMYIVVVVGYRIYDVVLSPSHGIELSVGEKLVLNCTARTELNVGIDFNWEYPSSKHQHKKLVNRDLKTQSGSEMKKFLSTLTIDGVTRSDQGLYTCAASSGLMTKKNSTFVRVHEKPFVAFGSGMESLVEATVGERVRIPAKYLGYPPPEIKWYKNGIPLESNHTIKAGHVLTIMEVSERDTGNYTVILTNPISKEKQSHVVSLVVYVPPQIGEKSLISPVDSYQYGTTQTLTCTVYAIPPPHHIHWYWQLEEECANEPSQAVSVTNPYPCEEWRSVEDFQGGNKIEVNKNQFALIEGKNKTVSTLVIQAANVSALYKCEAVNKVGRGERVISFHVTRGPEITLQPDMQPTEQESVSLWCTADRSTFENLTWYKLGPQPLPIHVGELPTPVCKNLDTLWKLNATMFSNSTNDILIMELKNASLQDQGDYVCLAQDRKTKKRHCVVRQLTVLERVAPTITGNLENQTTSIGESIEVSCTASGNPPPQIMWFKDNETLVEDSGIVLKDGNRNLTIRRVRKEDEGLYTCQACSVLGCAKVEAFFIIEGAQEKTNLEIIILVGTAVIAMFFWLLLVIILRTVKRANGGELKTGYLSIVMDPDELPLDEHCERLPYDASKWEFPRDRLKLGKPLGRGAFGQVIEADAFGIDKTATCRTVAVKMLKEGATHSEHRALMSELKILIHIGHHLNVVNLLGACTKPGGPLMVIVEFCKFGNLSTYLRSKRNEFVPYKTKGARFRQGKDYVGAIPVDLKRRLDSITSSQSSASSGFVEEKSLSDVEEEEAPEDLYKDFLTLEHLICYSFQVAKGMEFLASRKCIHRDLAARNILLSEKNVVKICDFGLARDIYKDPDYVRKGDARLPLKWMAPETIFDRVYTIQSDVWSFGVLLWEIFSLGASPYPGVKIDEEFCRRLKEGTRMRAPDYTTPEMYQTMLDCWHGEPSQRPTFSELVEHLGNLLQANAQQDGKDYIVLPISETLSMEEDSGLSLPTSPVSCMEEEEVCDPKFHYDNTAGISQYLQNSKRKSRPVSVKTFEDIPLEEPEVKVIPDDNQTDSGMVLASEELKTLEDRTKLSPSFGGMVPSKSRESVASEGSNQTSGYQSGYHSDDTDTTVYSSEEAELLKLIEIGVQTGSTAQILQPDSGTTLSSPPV
- METHOD_NOTES: cell-based or functional assay
Just the number please, in %, no unit attached.

Q. Which Activity at 133 nM (% Inhibition), 24-hour Pre-incubation at 37° C., N = 1 reading was recorded for the binder 30D7 (antibody, V domains shown) VH: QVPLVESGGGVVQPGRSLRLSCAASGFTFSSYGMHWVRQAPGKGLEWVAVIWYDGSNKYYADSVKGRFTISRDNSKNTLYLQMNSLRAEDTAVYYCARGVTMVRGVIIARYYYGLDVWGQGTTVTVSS VL: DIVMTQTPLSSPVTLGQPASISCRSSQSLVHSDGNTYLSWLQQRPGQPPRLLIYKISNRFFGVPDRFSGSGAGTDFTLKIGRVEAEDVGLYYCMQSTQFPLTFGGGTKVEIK ?
A. 39

Q. Also 29H3 (antibody, V domains shown) VH: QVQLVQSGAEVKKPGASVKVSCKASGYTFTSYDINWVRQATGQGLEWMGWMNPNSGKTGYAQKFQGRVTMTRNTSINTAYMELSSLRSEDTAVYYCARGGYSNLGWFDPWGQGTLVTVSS VL: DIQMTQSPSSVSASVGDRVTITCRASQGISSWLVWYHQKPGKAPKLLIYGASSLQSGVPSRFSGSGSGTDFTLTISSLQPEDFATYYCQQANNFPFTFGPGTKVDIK , if possible.
A. 1

Q. Also 33C3 (antibody, V domains shown) VH: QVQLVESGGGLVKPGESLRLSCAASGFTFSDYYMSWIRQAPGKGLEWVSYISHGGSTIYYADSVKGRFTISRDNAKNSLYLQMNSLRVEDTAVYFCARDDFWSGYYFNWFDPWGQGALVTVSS VL: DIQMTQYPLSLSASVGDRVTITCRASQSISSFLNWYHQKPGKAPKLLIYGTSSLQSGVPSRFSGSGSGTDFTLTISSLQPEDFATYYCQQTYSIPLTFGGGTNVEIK , if possible.
A. 45
